- tested.system: T1, recombinant wild-type (wt) human kallikrein 2 (human, UniProt P20151 25-261)
- T1 construct: Enzymatically active hK2; in phage assays captured on wells by MAb 5E4, in enzyme assays in solution; also called hK2; HK2
- procedure.text: phage display selection on hK2 captured by MAb 5E4, four rounds
No end group written: not given here.

binder | binding result
CFRQGCWVIT (disulfide (positions not given here); also: displayed as fusion to phage pIII protein, also called phage p04; HK2p04 phage clone (X10 library); not shown: pIII coat protein of fUSE-5 filamentous phage) [phage carrying peptide HK2p04 as part of pIII protein] | binds
PARRPFPVTA (also called phage p03; HK2p03 phage clone (X10 library); not shown: pIII coat protein of fUSE-5 filamentous phage) [phage carrying peptide HK2p03 as part of pIII protein] | binds
CYRMPTCMQRD (disulfide (positions not given here); also: displayed as fusion to phage pIII protein, also called phage p06; HK2p06 phage clone (X11 library); not shown: pIII coat protein of fUSE-5 filamentous phage) [phage carrying peptide HK2p06 as part of pIII protein] | binds
AARRPFPAPS (also called phage p02; HK2p02 phage clone (X10 library); not shown: pIII coat protein of fUSE-5 filamentous phage) [phage carrying peptide HK2p02 as part of pIII protein] | binds
